Measured IC50 values are reported for all entries that follow.
- Target System: Histone deacetylase 6 (Homo sapiens, UniProt Q9UBN7)
- Sequence (Q9UBN7 whole entry): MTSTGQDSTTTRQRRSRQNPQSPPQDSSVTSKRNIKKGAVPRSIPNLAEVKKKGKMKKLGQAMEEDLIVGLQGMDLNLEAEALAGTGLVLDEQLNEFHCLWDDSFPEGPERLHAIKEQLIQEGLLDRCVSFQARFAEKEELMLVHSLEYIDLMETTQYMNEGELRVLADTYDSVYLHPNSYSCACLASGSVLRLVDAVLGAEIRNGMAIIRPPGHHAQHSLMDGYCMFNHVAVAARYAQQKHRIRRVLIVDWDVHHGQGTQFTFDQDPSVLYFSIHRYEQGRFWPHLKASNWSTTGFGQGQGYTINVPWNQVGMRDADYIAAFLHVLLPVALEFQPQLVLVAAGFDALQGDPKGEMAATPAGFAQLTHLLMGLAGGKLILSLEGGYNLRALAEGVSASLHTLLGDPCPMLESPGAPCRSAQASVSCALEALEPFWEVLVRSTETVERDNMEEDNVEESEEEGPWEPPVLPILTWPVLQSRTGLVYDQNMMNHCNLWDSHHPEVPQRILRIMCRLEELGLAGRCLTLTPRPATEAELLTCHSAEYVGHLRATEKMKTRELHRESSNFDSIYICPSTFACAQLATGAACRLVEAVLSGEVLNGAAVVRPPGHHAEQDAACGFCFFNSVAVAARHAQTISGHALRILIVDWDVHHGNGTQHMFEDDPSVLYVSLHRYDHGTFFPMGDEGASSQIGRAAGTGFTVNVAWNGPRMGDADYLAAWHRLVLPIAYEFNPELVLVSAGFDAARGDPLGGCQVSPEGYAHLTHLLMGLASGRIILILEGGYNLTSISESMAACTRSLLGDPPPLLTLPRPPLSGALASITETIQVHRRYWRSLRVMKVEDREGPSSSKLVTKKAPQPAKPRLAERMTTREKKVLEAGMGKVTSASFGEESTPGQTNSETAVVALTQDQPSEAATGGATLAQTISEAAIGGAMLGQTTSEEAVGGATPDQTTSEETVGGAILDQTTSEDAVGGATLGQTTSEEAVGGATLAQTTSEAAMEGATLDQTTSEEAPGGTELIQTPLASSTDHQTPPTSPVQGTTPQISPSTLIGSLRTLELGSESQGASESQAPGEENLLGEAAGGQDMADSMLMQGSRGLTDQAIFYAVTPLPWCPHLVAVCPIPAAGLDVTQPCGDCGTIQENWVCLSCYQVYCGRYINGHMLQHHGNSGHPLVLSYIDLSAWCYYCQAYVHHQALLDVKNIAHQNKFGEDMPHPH
- Test Details: Inhibition of human HDAC6 using fluorogenic as substrate measured after 30 mins by fluorescence based analysis
Please state the figure in nM; there is no need to write the unit.

Consider the worked cases shown below.
1. O=C(NO)c1ccc(NC(=O)[C@@H](NS(=O)(=O)c2cccc3ccccc23)c2ccccc2)cc1 295
2. O=C(NO)c1ccc(NC(=O)[C@@H](NC(=O)c2ccc3ccccc3c2)c2ccccc2)cc1 376
3. CN(C)c1cccc2c(S(=O)(=O)N[C@H](C(=O)Nc3ccc(C(=O)NO)cc3)c3ccccc3)cccc12 366

# next compound below
Lookup: Item: O=C(NO)c1ccc(NC(=O)[C@@H](NC(=O)c2cccc(Br)c2)c2ccccc2)cc1 Test system: Histone deacetylase 6 (Homo sapiens, UniProt Q9UBN7) Read-out: IC50 Value: ?
Found: 196
